Data provenance: patent US20150086555A1

Here, each record is paired with measured Trimeric HA Binding: RLU data.
system_tested: recombinant soluble homotrimeric HA of A/chicken/Vietnam/NCVD-016/08 (H5N1) (Influenza A virus A/chicken/Vietnam/NCVD-016/2008(H5N1))
experiment_notes: trimeric HA microarray, transfection supernatant set 3
reported_conditions: remark: other sources report otherwise
Give your result in RLU as a bare value.

Guide cases for Trimeric HA Binding: RLU, answers given:
[
  {
    "binder": "TCN-532 (5262_H18) (antibody, V domains shown) VH: QVQLQESGPGLVKPSETLSLTCTVSGGSVSSETYYWSWIRQPPGKGLEWIGYIYYIGNTDYRPSLKSRVTISLDTSKNQFSLKLSSVTAADTAVYYCARGAYYDSSGYPAFYIWGQGTMVTVSS VL: QSVLTQPPSVSGAPGQRVTISCTGSSSNIGSDYDVHWYKQLPGTAPKLLIFGNSNRPSGVPDRFSGSKSGTSASLAITGLQAEDEADYYCQSYDSSLSGFHVFGSGTKVTVL",
    "result_number": 29
  },
  {
    "binder": "TCN-530 (5248_H10a) (antibody, V domains shown) VH: QVQLVQSGAEVRKPGSSVKVSCKASGGPFMSYAIGWVRQAPGQGLEWMGGINPVFGRPHYAQKFQGRVTIATDDSTKTSYMELSSLTSEDTGMYYCASRYSRSSPGTFESWGQGTLVTVSS VL: EIVMTQFPATLSVSPGERVTLSCRASQSVSNNLAWYQQKPGQPPRLLIYDASTRATGVPAKFSGTGSGTEFTLSISSLQSEDFAVYYCQQYHNWPPSYSFGLGTKLEIK",
    "result_number": 18000
  }
]

Could you now consider this next binder?
Entry TCN-523 (5248_A17) (antibody, V domains shown) VH: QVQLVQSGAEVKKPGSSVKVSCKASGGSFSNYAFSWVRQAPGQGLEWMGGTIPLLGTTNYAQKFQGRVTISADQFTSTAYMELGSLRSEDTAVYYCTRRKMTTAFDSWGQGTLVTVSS VL: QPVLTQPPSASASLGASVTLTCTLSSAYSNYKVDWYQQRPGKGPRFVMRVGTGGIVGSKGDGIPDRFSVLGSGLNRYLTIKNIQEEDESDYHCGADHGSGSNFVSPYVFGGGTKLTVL ; Trimeric HA Binding: RLU = 18900
